Each recorded value in this set is attributed to patent US20040152740A1.

system_tested: human GlyT-2 (Homo sapiens, UniProt Q9Y345)
Construct: elsewhere 'preferably QT-6 cells derived from quail fibroblasts'
Sequence (Q9Y345 whole entry): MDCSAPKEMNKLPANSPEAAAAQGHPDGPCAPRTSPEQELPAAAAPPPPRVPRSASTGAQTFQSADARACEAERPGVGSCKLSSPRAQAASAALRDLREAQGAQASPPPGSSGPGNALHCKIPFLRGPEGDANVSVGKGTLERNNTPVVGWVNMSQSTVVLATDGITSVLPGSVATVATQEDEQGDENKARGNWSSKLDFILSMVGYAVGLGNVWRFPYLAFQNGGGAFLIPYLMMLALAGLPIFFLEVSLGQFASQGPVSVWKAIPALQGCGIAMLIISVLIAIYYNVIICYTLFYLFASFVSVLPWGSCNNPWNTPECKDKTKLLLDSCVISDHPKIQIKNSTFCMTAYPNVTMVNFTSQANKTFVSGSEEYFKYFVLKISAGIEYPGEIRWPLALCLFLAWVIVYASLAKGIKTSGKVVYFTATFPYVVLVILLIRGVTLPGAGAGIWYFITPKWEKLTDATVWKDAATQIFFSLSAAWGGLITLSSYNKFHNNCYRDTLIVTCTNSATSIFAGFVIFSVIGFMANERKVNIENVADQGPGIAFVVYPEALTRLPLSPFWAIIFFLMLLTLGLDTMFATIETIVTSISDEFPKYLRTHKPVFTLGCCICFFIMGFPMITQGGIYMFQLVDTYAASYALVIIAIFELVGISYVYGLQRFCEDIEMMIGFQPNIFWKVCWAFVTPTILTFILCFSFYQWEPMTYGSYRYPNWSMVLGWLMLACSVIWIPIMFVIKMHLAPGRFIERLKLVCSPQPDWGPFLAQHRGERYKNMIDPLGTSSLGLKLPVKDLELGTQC
protocol: Assay of transport via GlyT-2 transporters: [3H]glycine uptake by stably transfected cultured cells
stated_conditions: cells stably transfected with human GlyT-2; 50 nM [3H]glycine; ten minutes at 37° C.; read-out: GlyT1 uptake IC50
measure_name: pIC50
Scale for pIC50: -log10 of concentration given in mol/L; no unit attached.

[in] Report pIC50 for "COc1ccc(NC(=S)N[C@H](CC(C)C)C(=O)Nc2c(C)cccc2C)c([N+](=O)[O-])c1" please.
[out] 7.04

[in] Try this molecule too: CCOc1ccc(NC(=S)NC(C(=O)Nc2ccccc2C)c2ccccc2)c([N+](=O)[O-])c1 (stereo not shown)
[out] 6.76

[in] Try this molecule too: Cc1cccc(C)c1NC(=O)C(NC(=S)Nc1ccc(OCCN(C)C)cc1C(F)(F)F)c1ccccc1 (stereo not shown)
[out] 6.94

[in] Try this molecule too: Cc1cccc(C)c1NC(=O)C(NC(=S)Nc1ccc(OCCN(C)C)cc1[N+](=O)[O-])c1ccccc1 (stereo not shown)
[out] 6.74

[in] Try this molecule too: COc1ccc(NC(=S)NC(C(=O)Nc2ccccc2C)c2ccccc2)c([N+](=O)[O-])c1 (stereo not shown)
[out] 7.08

[in] Try this molecule too: Cc1cccc(C)c1NC(=O)C(NC(=S)Nc1ccccc1S(=O)(=O)N(C)C)c1ccccc1 (stereo not shown)
[out] 7.32

[in] Try this molecule too: Cc1cccc(C)c1NC(=O)C(NC(=S)Nc1ccc(S(=O)(=O)N(C)C)cc1[N+](=O)[O-])c1ccccc1 (stereo not shown)
[out] 7.85
